targetSystem: Protein deacetylase HDAC6 (Homo sapiens, UniProt Q9UBN7)
Sequence (Q9UBN7 whole entry): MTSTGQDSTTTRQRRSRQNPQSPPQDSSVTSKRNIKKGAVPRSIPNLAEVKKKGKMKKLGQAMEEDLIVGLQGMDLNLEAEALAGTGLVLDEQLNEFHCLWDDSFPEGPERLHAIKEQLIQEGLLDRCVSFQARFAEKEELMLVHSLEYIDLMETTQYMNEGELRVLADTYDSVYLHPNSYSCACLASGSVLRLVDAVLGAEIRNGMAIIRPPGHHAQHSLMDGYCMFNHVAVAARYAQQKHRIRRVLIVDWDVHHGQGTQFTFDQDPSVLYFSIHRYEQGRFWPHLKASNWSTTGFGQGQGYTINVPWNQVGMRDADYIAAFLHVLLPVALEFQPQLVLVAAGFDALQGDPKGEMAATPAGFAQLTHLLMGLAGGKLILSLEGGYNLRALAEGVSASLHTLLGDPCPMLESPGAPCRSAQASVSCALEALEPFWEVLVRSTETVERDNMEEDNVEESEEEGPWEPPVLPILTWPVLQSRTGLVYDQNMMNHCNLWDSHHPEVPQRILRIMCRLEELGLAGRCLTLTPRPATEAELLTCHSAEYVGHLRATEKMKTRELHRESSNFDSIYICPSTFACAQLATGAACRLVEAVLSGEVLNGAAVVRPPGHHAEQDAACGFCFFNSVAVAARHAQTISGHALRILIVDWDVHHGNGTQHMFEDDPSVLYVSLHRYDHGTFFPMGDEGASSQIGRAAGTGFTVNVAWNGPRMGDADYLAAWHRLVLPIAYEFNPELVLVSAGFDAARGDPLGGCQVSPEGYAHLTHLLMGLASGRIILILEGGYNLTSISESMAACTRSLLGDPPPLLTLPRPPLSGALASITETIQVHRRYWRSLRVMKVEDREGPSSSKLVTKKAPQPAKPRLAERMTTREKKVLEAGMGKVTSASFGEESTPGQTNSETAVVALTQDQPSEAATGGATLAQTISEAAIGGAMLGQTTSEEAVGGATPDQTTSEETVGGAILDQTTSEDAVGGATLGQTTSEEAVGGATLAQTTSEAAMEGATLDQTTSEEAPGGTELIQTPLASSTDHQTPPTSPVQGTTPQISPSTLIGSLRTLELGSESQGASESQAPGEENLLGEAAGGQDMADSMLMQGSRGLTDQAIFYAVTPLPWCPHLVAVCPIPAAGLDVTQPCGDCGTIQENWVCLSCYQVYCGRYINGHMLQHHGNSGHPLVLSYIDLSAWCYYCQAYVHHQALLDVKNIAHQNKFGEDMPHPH
protocol: Inhibition of human full-length recombinant HDAC6 using fluorogenic peptide […] (RHKK(Ac)) as substrate by fluorescence method
pIC50: −log10 of the molar value.

mol: O=C(/C=C/c1cccn(CCCc2ccc3ccccc3c2)c1=O)NO
pIC50: 8.61

* * *

targetSystem: Polyamine deacetylase HDAC10 (Homo sapiens, UniProt Q969S8)
Sequence (Q969S8 whole entry): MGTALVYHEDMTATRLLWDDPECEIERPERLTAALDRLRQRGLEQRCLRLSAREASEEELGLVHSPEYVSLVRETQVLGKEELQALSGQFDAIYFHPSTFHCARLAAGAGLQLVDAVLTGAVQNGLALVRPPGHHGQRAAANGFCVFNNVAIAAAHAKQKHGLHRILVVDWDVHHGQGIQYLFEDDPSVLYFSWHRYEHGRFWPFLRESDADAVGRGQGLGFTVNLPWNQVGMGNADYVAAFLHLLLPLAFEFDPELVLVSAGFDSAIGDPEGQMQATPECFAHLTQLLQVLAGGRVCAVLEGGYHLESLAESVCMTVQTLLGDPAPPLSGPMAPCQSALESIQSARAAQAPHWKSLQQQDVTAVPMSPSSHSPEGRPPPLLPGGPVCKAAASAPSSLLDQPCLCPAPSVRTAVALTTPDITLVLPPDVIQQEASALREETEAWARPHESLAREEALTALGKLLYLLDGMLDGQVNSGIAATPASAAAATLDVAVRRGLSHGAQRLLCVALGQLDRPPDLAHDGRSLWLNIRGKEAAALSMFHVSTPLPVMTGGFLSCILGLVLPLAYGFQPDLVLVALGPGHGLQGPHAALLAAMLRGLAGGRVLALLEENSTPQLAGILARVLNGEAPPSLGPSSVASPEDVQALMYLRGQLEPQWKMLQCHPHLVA
protocol: Inhibition of human HDAC10 using fluorogenic HDAC substrate incubated for 45 mins by fluorimetry
pIC50: −log10 of the molar value.
assayMetric: pIC50

mol: O=C(NO)c1ccc(Cn2c3c(c4ccccc42)S(=O)(=O)CC3)cc1
resultValue: < 5.30
